The reported measurements were obtained from patent US8399681B2.

STUDY_TARGET: ERR1 (also known as ERR-α or ERR-1) (Homo sapiens)
Sequence (P11474 193-421 limits assumed, species assumed): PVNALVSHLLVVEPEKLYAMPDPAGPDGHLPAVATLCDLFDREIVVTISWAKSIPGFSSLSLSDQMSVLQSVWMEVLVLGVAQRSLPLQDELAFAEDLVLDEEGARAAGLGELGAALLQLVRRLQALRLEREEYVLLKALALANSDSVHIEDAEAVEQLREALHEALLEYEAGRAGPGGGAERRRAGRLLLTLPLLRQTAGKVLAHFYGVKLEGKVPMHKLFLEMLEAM
PROTOCOL_DETAILS: TR-FRET assay (disruption of co-activator peptide binding)
CONDITION_PARAMETERS: 6His-tagged ERR1 LBD, GST-hSRC2 co-activator polypeptide; average of 3 independent experiments
Recorded EC50, one value per entry.
MEASUREMENT_LABEL: EC50

• CNC1CN(C2=NC(=O)/C(=C/c3ccc4c(cnn4Cc4ccc(Cl)cc4C(F)(F)F)c3)S2)C1 = 8 nM
• C[C@@H]1CN(C)CCN1C1=NC(=O)/C(=C/c2ccc3c(cnn3Cc3ccc(Cl)cc3C(F)(F)F)c2)S1 = 11 nM
• CC[C@H]1CNCCN1C1=NC(=O)/C(=C/c2ccc3c(cnn3Cc3ccc(Cl)cc3C(F)(F)F)c2)S1 = 28 nM
• CN1CCN(C2=NC(=O)/C(=C/c3ccc4c(cnn4Cc4ccc(C5CC5)cc4C(F)(F)F)c3)S2)CC1 = 11 nM
• CNC(=O)CN1CCN(C2=NC(=O)/C(=C/c3ccc4c(cnn4Cc4ccc(Cl)cc4C(F)(F)F)c3)S2)CC1 = 7.6 nM
• O=C1N=C(N2CCNCC(O)C2)S/C1=C\c1ccc2c(cnn2Cc2ccc(C(F)(F)F)cc2C(F)(F)F)c1 (stereo not drawn) = 25.7 nM
• O=C1CCN(C2=NC(=O)/C(=C/c3ccc4c(cnn4Cc4ccc(C(F)(F)F)cc4C(F)(F)F)c3)S2)CCN1 = 7.3 nM
• CC(=O)N[C@@H]1C[C@H](CO)N(C2=NC(=O)/C(=C/c3ccc4c(cnn4Cc4ccc(Cl)cc4C(F)(F)F)c3)S2)C1 = 20 nM
• O=C1N=C(N2C[C@@H](F)C[C@H]2C(=O)O)S/C1=C\c1ccc2c(cnn2Cc2ccc(Cl)cc2C(F)(F)F)c1 = 24 nM
• O=C(O)COC1CCN(C2=NC(=O)/C(=C/c3ccc4c(cnn4Cc4ccc(Cl)cc4C(F)(F)F)c3)S2)CC1 = 7.8 nM
• CC(=O)NC1CCN(C2=NC(=O)/C(=C/c3ccc4c(cnn4Cc4ccc(C(F)(F)F)cc4C(F)(F)F)c3)S2)CC1 = 30.2 nM
• CCOC(=O)N1CCCN(C2=NC(=O)/C(=C/c3ccc4c(cnn4Cc4ccc(Cl)cc4C(F)(F)F)c3)S2)CC1 = 32 nM
• CC(C)(C)NC(=O)[C@@H]1CN(C2=NC(=O)/C(=C/c3ccc4c(cnn4Cc4ccc(C(F)(F)F)cc4C(F)(F)F)c3)S2)CCN1 = 21.4 nM
• CN1CCN(C2=NC(=O)/C(=C/c3ccc4c(cnn4Cc4ccc(C(N)=O)cc4C(F)(F)F)c3)S2)CC1 = 300 nM
• O=C1N=C(N2CCN(CC(F)(F)F)CC2)S/C1=C\c1ccc2c(cnn2Cc2ccc(Cl)cc2C(F)(F)F)c1 = 42 nM
• CCOC(=O)N1CCCN(C2=NC(=O)/C(=C/c3ccc4c(cnn4Cc4ccc(C(F)(F)F)cc4C(F)(F)F)c3)S2)CC1 = 28 nM
• CS(=O)(=O)c1ccc(Cn2ncc3cc(/C=C4\SC(N5CCN(CCO)CC5)=NC4=O)ccc32)c(C(F)(F)F)c1 = 450 nM
• N#Cc1nn(Cc2ccc(Cl)cc2C(F)(F)F)c2ccc(/C=C3\SC(N4CCN(CC5CC5)CC4)=NC3=O)cc12 = 70 nM
• O=C1N=C(N2CCNC3(CC3)C2)S/C1=C\c1ccc2c(cnn2Cc2ccc(C(F)(F)F)cc2C(F)(F)F)c1 = 17 nM
• O=C1N=C(N2CCn3cccc3C2)S/C1=C\c1ccc2c(cnn2Cc2ccc(C(F)(F)F)cc2C(F)(F)F)c1 = 225 nM
• COCCN1CCN(C2=NC(=O)/C(=C/c3ccc4c(cnn4Cc4ccc(Cl)cc4C(F)(F)F)c3)S2)[C@H](C)C1 = 11 nM
• O=C1N=C(N2CCN[C@H](CO)C2)S/C1=C\c1ccc2c(cnn2Cc2ccc(C(F)(F)F)cc2C(F)(F)F)c1 = 13 nM
• COCCOc1ccc(Cn2ncc3cc(/C=C4\SC(N5CCN(C)CC5)=NC4=O)ccc32)c(C(F)(F)F)c1 = 520 nM
• CN[C@H]1CCN(C2=NC(=O)/C(=C/c3ccc4c(cnn4Cc4ccc(Cl)cc4C(F)(F)F)c3)S2)C1 (stereo in doubt) = 8.4 nM
• COCCN1C[C@@H]2C[C@H]1CN2C1=NC(=O)/C(=C/c2ccc3c(cnn3Cc3ccc(Cl)cc3C(F)(F)F)c2)S1 = 8.6 nM
• O=C(O)CC1CCN(C2=NC(=O)/C(=C/c3ccc4c(cnn4Cc4ccc(Cl)cc4C(F)(F)F)c3)S2)C1 (stereo not drawn) = 21 nM
• O=C1N=C(N2C[C@H](NC(=O)C3CC3)C[C@@H]2CO)S/C1=C\c1ccc2c(cnn2Cc2ccc(C(F)(F)F)cc2C(F)(F)F)c1 = 290 nM
